Each recorded value in this set is attributed to paper PMC12040169.

Test: in vitro
Conditions: human, hela cells, % viability
quantityKind: viability at 28.5 h, 10 µM (%)
I only need the number, in %, no unit after it.

The molecule listed as O=c1[nH]c2ccc(Oc3ccc4[nH]c(=O)c(=O)[nH]c4c3)cc2[nH]c1=O [CBK293978] shows viability at 28.5 h, 10 µM equal to 101

The molecule listed as Nc1nc(N)nc(CSc2ncc(-c3ccccc3)n2-c2ccccc2)n1 [CBK297103] has a reported viability at 28.5 h, 10 µM of 85.9

Query CCNC(=O)C1CCCN(Cc2ncc(C)c(OC)c2C)C1 (stereo not drawn) [CBK305081] yields viability at 28.5 h, 10 µM of 78

// recorded viability at 28.5 h, 10 µM for N#Cc1c(NC(=O)CN2CCCCC2)sc2c1CCCC2 [CBK261619] : 89.6

Please fill in: viability at 28.5 h, 10 µM reported for N=C(N)NCc1ccc(Cl)cc1 [CBK002260] = 95.7

For CN(CCCc1cnn(C)c1)c1nc(N)nc2c1CCCC2 [CBK306766] the molecule record lists viability at 28.5 h, 10 µM as 96.5

# viability at 28.5 h, 10 µM of Cc1noc(C)c1CN1CCC(c2ccccc2)CC1 [CBK306001] = 89.9

Field viability at 28.5 h, 10 µM (entry CC(C)Nc1cc(OCCCc2ccncc2)ncn1 [CBK115886] ) reads 104

Lab note: measured viability at 28.5 h, 10 µM of Cc1c(C#N)c(=O)oc2ccccc12 [CBK007705] was 95.2

Entry Cc1c(C(=O)N(C)CCc2ccncc2)[nH]c2ccccc12 [CBK283271] , viability at 28.5 h, 10 µM reported as 104

Entry under test: CC(C)(C)OC(=O)Nc1ccc(Oc2ncc(C(F)(F)F)cc2Cl)cc1 [CBK161658] . Its viability at 28.5 h, 10 µM was 99.2

The molecule listed as CC(C)(C)NC(=O)Cn1cncc1-c1cnn(C2CCCCC2)c1 [CBK281701] shows viability at 28.5 h, 10 µM equal to 93.5

The value of viability at 28.5 h, 10 µM measured for the molecule Nc1ncc(-c2ccc(Cl)cc2)c(C2CCCN(C(=O)Cc3c[nH]c4ccccc34)C2)n1 (stereo not drawn) [CBK285574] turned out to be 113

Documented viability at 28.5 h, 10 µM of Nc1cccc(-c2nccnc2N2CCCC2CO)c1 (stereo not drawn) [CBK036786] : 102

Quick note, viability at 28.5 h, 10 µM for CC[C@H]1CN(C(C)=O)CC[C@H]1CC(=O)Nc1nccs1 [CBK289130] landed at 97.8

The recorded viability at 28.5 h, 10 µM for O=C(COc1ccc(I)cc1)N/N=C/c1cccc([N+](=O)[O-])c1 [CBK262211] is 95.2

For CCC1CCC2(CC1)NC(=O)N(CC(=O)Nc1nccs1)C2=O (stereo not drawn) [CBK305936] the molecule record lists viability at 28.5 h, 10 µM as 95.9

Briefly, viability at 28.5 h, 10 µM measured for COc1ccc(C(=O)N2C[C@H]3Cc4c(n[nH]c4C(F)F)[C@H]3C2)s1 [CBK283425] : 95.4

The molecule Cc1ccc(C(=O)Nc2nnc(C3=COCCO3)o2)cc1C [CBK287413] showed viability at 28.5 h, 10 µM equal to 104

Entry COCCC(=O)NCc1ccc(OC2CCNCC2)cc1 [CBK024494T] , viability at 28.5 h, 10 µM reported as 98.6

Lab note: measured viability at 28.5 h, 10 µM of Cc1noc(C)c1NC(=O)c1cc2ccccc2n1C [CBK200311] was 108

* * *

Assay: in vitro
Conditions: human, hela cells, % viability
Can you tell me viability at 28.5 h, 10 µM for the items I'm about to list?
Field: numeric (%). Do not append units.

Per the records, this molecule ( `CC(=O)Nc1ccc(OC(=O)c2ccc(Br)o2)cc1` ) has viability at 28.5 h, 10 µM equal to 112

The recorded viability at 28.5 h, 10 µM for `O=C1Nc2ccc(-c3cccc(C(F)(F)F)c3)cc2C(=O)N2C[C@H](O)C[C@@H]12` is 106

Entry under test: `CC(C)(C)C(=O)N[C@H]1C[C@@H](Cc2cc(CO)on2)C1(C)C` . Its viability at 28.5 h, 10 µM was 92.1

molecule `Nc1nc(NCc2ccccc2)nc(-c2cc(Cl)ccc2O)n1` , viability at 28.5 h, 10 µM observed: 102

Sample `CN(C)S(=O)(=O)N(CC(=O)Nc1cccnc1)c1ccccc1` ; viability at 28.5 h, 10 µM observed: 119

viability at 28.5 h, 10 µM reading for `Nc1ncc(-c2cc(C(F)(F)F)cc(C(F)(F)F)c2)nc1NCc1ccco1` : 91.6

For record `CCS(=O)(=O)c1ccc(O)c(NS(=O)(=O)c2cc(C(=O)O)ccc2Cl)c1` the listed viability at 28.5 h, 10 µM is 91.1

Value of measured viability at 28.5 h, 10 µM for the entry `O=C(O)CNS(=O)(=O)c1cc(Cl)c(Cl)cc1Cl` : 96.6

The molecule Cc1ccccc1Oc1ccccc1NC(=O)CN1CCCCC1 [CBK015781C] showed viability at 28.5 h, 10 µM equal to 98.3

* * *

Assay: in vitro
Conditions: human, hela cells, % viability
Record form. Attribute: viability at 28.5 h, 10 µM. Fill in for each entry.

Measured viability at 28.5 h, 10 µM of `Cc1cc(C)nc(SCc2c(C)c(C)c(CSc3nc(C)cc(C)n3)c(C)c2C)n1` : 109%

The recorded viability at 28.5 h, 10 µM for `COc1cccc(NC(=O)CSCc2n[nH]c(=O)[nH]2)c1` is 95.8%

The compound identified as O=C(O)c1ccccc1NC1CC(=O)N(C2CCCCC2)C1 (centres unmarked) registered its viability at 28.5 h, 10 µM at 91.3%

According to the records, this compound CCCc1cc(C(=O)OC)c(NC(=O)C2C3CCC(C3)C2C(=O)O)s1 (centres unmarked) displays viability at 28.5 h, 10 µM of 98.5%

Summary for this compound, `CNC(=O)CN1CCC[C@@H]2NC(=O)c3ccccc3OCCCCC[C@@H]21` : viability at 28.5 h, 10 µM is 104%

* * *

Assay: in vitro
Settings: human, hela cells, % viability
viability at 28.5 h, 10 µM strictly under 90% means MET; at 90% or over means NOT MET.

Query: Item `CC(C)c1nnc(NS(=O)(=O)c2ccc(N)cc2)s1` : viability at 28.5 h, 10 µM beneath 90%, strictly?
Response: NOT MET

Query: Item `O=C(O)c1cccc(NC(=O)c2cccc(S(=O)(=O)N3CCc4ccccc4C3)c2)c1` : viability at 28.5 h, 10 µM beneath 90%, strictly?
Response: NOT MET

Query: Could you please tell me whether viability at 28.5 h, 10 µM recorded for `O=S(=O)(Nc1nc(-c2sccc2Cl)cs1)c1cc(Cl)ccc1Cl` is less than 90%?
Response: NOT MET

Query: Field: below-cutoff. Rule: recorded viability at 28.5 h, 10 µM strictly less than 90%. Subject: Cc1ccc(C(=O)C(NC(=O)c2ccco2)Nc2cccc3ccccc23)cc1 (centres unmarked)
Response: MET

* * *

Experiment: in vitro
Settings: human, hela cells, % viability
quantityKind: viability at 28.5 h, 10 µM (%)
Just the number in %, nothing appended.

For record `Cn1c(=O)c2[nH]c(-c3ccc(OCC(=O)NCCc4ccccc4)cc3)nc2n(C)c1=O` the listed viability at 28.5 h, 10 µM is 97.9

Given item `O=C(CCn1c(C(F)F)cc2cccnc21)NCc1ccc(F)cc1` , the value recorded as its viability at 28.5 h, 10 µM is 102

viability at 28.5 h, 10 µM measured on `O=C(CSc1nnc(CN2CCOCC2)n1-c1ccccc1)N1CCN(c2ccccc2)CC1` = 102

Entry `COCCNc1nc(-c2cccc(-c3ccccc3)c2)cnc1N` ; viability at 28.5 h, 10 µM = 99.5

Form field viability at 28.5 h, 10 µM, entry CSc1nc(C(=O)N2CCCCC2c2cccc(F)c2)cs1 (stereo not drawn) : 108

The value of viability at 28.5 h, 10 µM measured for the compound `CCN(CCn1cccn1)c1nc2nonc2nc1NC1CCCC1` turned out to be 106

For reference, reported viability at 28.5 h, 10 µM for `COc1ccc(/C=N/c2cc(S(=O)(=O)c3ccc(O)c(/N=C/c4ccc(OC)c(O)c4)c3)ccc2O)cc1O` stands at 92.3

Lab book: viability at 28.5 h, 10 µM of O=C(C1CC1)N1C2CCC1CC(O)(Cn1ccc3ccncc31)C2 (stereo not drawn) noted as 90.4

Entry under test: `COc1ccc(-c2cc3cccnc3n2CC(=O)NC(C)C)cc1` . Its viability at 28.5 h, 10 µM was 100

Lookup result for `O=C(O)CSc1ncnc2ccccc12` ; measured viability at 28.5 h, 10 µM: 94.4

What the record says about Cc1noc(C)c1CCC(=O)NC(Cc1ccncc1)C1CC(O)C1 (stereo not drawn) : viability at 28.5 h, 10 µM is 91

// viability at 28.5 h, 10 µM value for `O=C(Nc1ccc(F)cc1)c1ccccc1NS(=O)(=O)c1ccc(C(F)(F)F)cc1[N+](=O)[O-]` : 108

The measured viability at 28.5 h, 10 µM associated with `CCOc1ccccc1C(=O)Nc1cnc(-c2cccc(OC(F)(F)F)c2)c(-c2cccnc2)n1` reads 114

response.value for O=C(O)C1C2C=CC3(CN(c4ccccc4)C(=O)C13)O2 (stereo not drawn) (field: viability at 28.5 h, 10 µM) = 87.4

The recorded viability at 28.5 h, 10 µM for entry O=[N+]([O-])c1ccc(CN2CCC(Oc3cncc(OCc4cccnc4)n3)C2)cc1 (stereo not drawn) equals 91.6

Record CCOC(=O)C1CCCN(Cc2nc3cc(Cl)ccc3c(=O)[nH]2)C1 (stereo not drawn) . Reported viability at 28.5 h, 10 µM: 86.9

get_value(item= `Cc1ccccc1OCc1nnc(SCC(=O)c2ccc3c(c2)Cc2ccccc2-3)n1C` , readout=viability at 28.5 h, 10 µM) returns 93.9

Reported viability at 28.5 h, 10 µM of `CC(C)(C)C(=O)Nc1ccc(-c2nc3ccc(Cc4ccc5nc(-c6ccc(NC(=O)C(C)(C)C)cc6)oc(=O)c5c4)cc3c(=O)o2)cc1` : 104
